# System: F1*sub RNA substrate (template-directed ligation)
# procedureText: fraction ligated after 30 min (ligated reads / total reads); higher = more ligase activity; sequences stand for … in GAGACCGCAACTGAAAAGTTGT…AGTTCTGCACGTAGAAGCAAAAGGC
# measurementSetup: 42 °C
Consider the following sequences and their measured fraction ligated readings.
Answer with a number only.

TCACTTGTCGTAAGACACTTTGGATGGTTGA [3d21]: 0.709

Could you please provide reported fraction ligated for TATCACTTGTGTAGACACTTTGATGGGTTGA [3d1738] ? Thanks!
0.824

Could you please provide reported fraction ligated for TATCACTTGGTAAGACACTTTGATGGGTTGA [3d1593] ? Thanks!
0.776

Could you please provide reported fraction ligated for TACCTTGTCGTAAGAACTTTGGATGGGTTGA [3d537] ? Thanks!
0.253

Could you please provide reported fraction ligated for ATACTTGCGTAAGACACTTTGGATGGGTTGA [3d50] ? Thanks!
0.177

Could you please provide reported fraction ligated for TATCATTGTCGTAAGAACTTTGGATGGGTTG [3d1254] ? Thanks!
0.815

Could you please provide reported fraction ligated for TATCACTTTCTAAGACACTTTGGATGGTTGA [3d1490] ? Thanks!
0.114

Could you please provide reported fraction ligated for ATCACTTGTCGTAAGCACTTTGGATGGGTTA [3d229] ? Thanks!
0.34

Could you please provide reported fraction ligated for GTATCACTTGTCGTAAGACACTTTGGATGGTTGA [s35] ? Thanks!
0.242

====

# Test system: F1*sub RNA substrate (template-directed ligation)
# procedureText: fraction ligated after 30 min (ligated reads / total reads); higher = more ligase activity; sequences stand for … in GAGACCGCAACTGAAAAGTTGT…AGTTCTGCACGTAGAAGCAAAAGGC
# measurementSetup: 42 °C
Consider the following sequences and their measured fraction ligated readings.
Answer with a number only.

Some sequences with recorded fraction ligated:
TTCACTTGTCGTAGACACTTTGGATGGGTTGA [2d34]: 0.798
ATCACTTGTCGTAAGACCTTTGGATGGGTTG [3d245]: 0.706
TATCACTTGTGTAAGAACTTTGATGGGTTGA [3d1766]: 0.834
TATCACTTGTCGTAAGACACTTGGATGGTTGA [2d280]: 0.0762
TTACTTGTCGTAAGACACTTTGGTGGGTTGA [3d293]: 0.031
TACACTTGTGTAGACACTTTGGATGGGTTGA [3d619]: 0.0703

Could you please provide reported fraction ligated for TACACTTGTCGTAAGAACTTTGATGGGTTGA [3d694] ? Thanks!
0.00588

Could you please provide reported fraction ligated for ATCACTTGTCGTAAGACATTTGGAGGGTTGA [3d249] ? Thanks!
0.0168

Could you please provide reported fraction ligated for TATCACTTGTCGTAAGACCTTGGATGGGTTG [3d2189] ? Thanks!
0.79

Could you please provide reported fraction ligated for TTCACTTGTCGTAAAACTTTGGATGGGTTGA [3d442] ? Thanks!
0.623

Could you please provide reported fraction ligated for TACACTTGTCGTAAAACTTTGGATGGGTTGA [3d672] ? Thanks!
0.0463

Could you please provide reported fraction ligated for TATCACTTGCAAGACACTTTGGATGGGTTGA [3d1599] ? Thanks!
0.798

Could you please provide reported fraction ligated for ATCACTGTCGTAAGACACTTTGGATGGGTTA [3d122] ? Thanks!
0.298
